ASSAY_INFO: Acid dissociation constant was determined
Type: ADME
Where a name gives a salt, the structure may show the parent alone.
PROPERTY_MEASURED: pKa

COc1cc(CC2NCCc3cc(O)c(O)cc32)cc(OC)c1OC (stereo not drawn) [TRETOQUINOL HYDROCHLORIDE] : 8.77
COc1cc(CC2NCCc3cc(O)c(O)c(F)c32)cc(OC)c1OC (stereo not drawn) : 7.86
COc1cc(CC2NCCc3c2cc(O)c(O)c3F)cc(OC)c1OC (stereo not drawn) : 8.11

Data provenance is ChEMBL document CHEMBL1123596.
